- Experiment Description: Caco-2 bidirectional permeability assay
- Format: in vitro ADME, human
- Settings: human
Entries and their Papp A→B at 5 µM values follow.
Provide only the numeric value, understood in ×10⁻⁶ cm/s.

Compound	Papp A→B at 5 µM [×10⁻⁶ cm/s]
C[C@H]1O[C@@H](O[C@H]2[C@@H](O)C[C@H](O[C@H]3[C@@H](O)C[C@H](O[C@H]4CC[C@@]5(C)[C@H](CC[C@@H]6[C@@H]5C[C@@H](O)[C@]5(C)[C@@H](C7=CC(=O)OC7)CC[C@]65O)C4)O[C@@H]3C)O[C@@H]2C)C[C@H](O)[C@@H]1O [Digoxin control, Digoxin]	0.62

Shift focus to the following entry.
Query: Entry under review: CC(C)NCC(O)COc1cccc2ccccc12 (centres unmarked) [Propranolol control, Propranolol] . Reported Papp A→B at 5 µM?
Response: 17.1

From: paper PMC3377984
